system: RPMI-8226 leukemia; test: NCI-60 one-dose screen, 48 h; details: 10 µM unless noted
This is part of a sample that, as a whole, favours compounds with a hit. Of some 83,000 tested, about 20% had one in any assay. Activity calls are given as the source filed them. How the source made its calls: active means growth percent below 10; inactive means the rest.
Answer with one of the outcomes given here: active, inactive

What was the test verdict on O=C(CN1CCN(c2cc(=O)n(-c3ccccc3)c3ccccc23)CC1)Nc1cccc(C(F)(F)F)c1 ? inactive

What call does the record list for COc1ccc([C@@H]2c3[nH]c4ccccc4c3C[C@H]3C(=O)N(C4CCN(CC5CCCCC5)CC4)CC(=O)N23)c(OC)c1 ? inactive

Assay outcome for NC(N)=Nc1ccc(Oc2cccc(Oc3ccc(Cl)c(C(F)(F)F)c3)c2)cn1 : what was it? active

* * *

system: U251 CNS; assay: NCI-60 one-dose screen, 48 h (100 = growth as untreated, 0 = no growth, -100 = all killed); conditions: 10 µM unless noted
About 83,000 compounds went through this panel and 20% of them were active in at least one assay; those are over-represented in the sample as a whole.
Label 1 when growth is strictly below 80%; otherwise label -1.

As a guide, the following entries are already answered.
{"MOLECULE": "COc1ccc([C@@H]2[C@@H](O)C(=O)N2c2cc(OC)c(OC)c(OC)c2)cc1F", "CLASSIFICATION": 1}
{"MOLECULE": "Cc1nn(-c2ccccc2)c2ncnc(N/N=C/c3ccccc3O)c12", "CLASSIFICATION": 1}

A record lists O=[N+]([O-])c1cc(/C=N/Nc2nc(N/N=C/c3ccc(Cl)c([N+](=O)[O-])c3)nc(N3CCCCC3)n2)ccc1Cl . Is its growth below 80%? 1

Lab log: compare recorded growth with 80%; is it strictly lower for CNC(=O)c1cc(Oc2ccc3nc(NC(=O)c4ccc(N5CCOCC5)c(C(F)(F)F)c4)sc3c2)ccn1 ? 1

Determine if COc1ccc(NCc2cn(-c3ccc(C(=O)O)cc3)nc2-c2cc(C(F)(F)F)cc(C(F)(F)F)c2)cc1 shows growth strictly lower than 80%. -1

Does NC(N)=Nc1ccc(Oc2cccc(NC(N)=Nc3ccc(I)cc3F)c2)cn1 have growth strictly under 80%? 1

Here's an entry: Cc1nc(-c2ccccc2O)ccc1C(=O)N=Nc1c(O)[nH]c2ccc(Br)cc12 . Is its growth below 80%? -1

Please indicate whether the reported growth of CCO/C=N/C1=C(C#N)C(c2ccc(Cl)cc2)c2sc3c(C)cccc3c2O1 (stereo not given) is strictly below 80%. 1

* * *

test system: SF-268 CNS; assay: NCI-60 one-dose screen, 48 h (100 = growth as untreated, 0 = no growth, -100 = all killed); conditions: 10 µM unless noted
This is part of a sample that, as a whole, favours compounds with a hit. Of some 83,000 tested, about 20% had one in any assay.
// returns no unless growth is strictly below 30%, in which case yes

Please review the entries below; each comes with its answer.
{"MOLECULE": "CS(=O)(=O)Nc1cc(-c2ccc3ncc(C#N)c(NCc4ccccc4O)c3c2)cnc1Cl", "CLASSIFICATION": "yes"}
{"MOLECULE": "NS(=O)(=O)c1ccc(Nc2cc(-c3ccccc3)nc(SCC(=O)c3ccccc3)n2)cc1", "CLASSIFICATION": "no"}
{"MOLECULE": "CCNC(=O)N1CCc2cc(OC)c(OCCc3ccc(OC)c(N)c3)cc2C1c1ccc(C)cc1C (stereo not drawn)", "CLASSIFICATION": "yes"}
{"MOLECULE": "O=C(CCn1cc[n+](CC(=O)c2ccc(-c3ccccc3)cc2)c1)Nc1cccc2cccnc12", "CLASSIFICATION": "no"}
{"MOLECULE": "CCc1nn2c(C)cc(C)nc2c1Cc1ccc(/C=C/CN2CCN(CCOCCOCCN3CCN(C/C=C/c4ccc(Cc5c(CC)nn6c(C)cc(C)nc56)cc4)CC3)CC2)cc1", "CLASSIFICATION": "yes"}
{"MOLECULE": "NS(=O)(=O)c1ccc(-n2cc(CN3CCCCC3)nn2)cc1", "CLASSIFICATION": "no"}
{"MOLECULE": "O=S(=O)(Nc1cccc2ccccc12)c1ccc(-c2cnc(C3CC3)o2)cc1", "CLASSIFICATION": "no"}
{"MOLECULE": "COc1ccc(Cn2cc3c(c2-c2cc(OC)c(OC)c(OC)c2)CCc2c(CN4CCCC4)noc2-3)cc1", "CLASSIFICATION": "no"}
{"MOLECULE": "O=C(NCc1ncc[nH]1)c1ccc(-c2nc3ccc4[nH]ncc4c3c3c2CCCC3)cc1", "CLASSIFICATION": "yes"}
{"MOLECULE": "COC(=O)C1(C)CCC[C@]2(C)[C@H]3C[C@H]4C(C(C)C)=C[C@]3(CC[C@@H]12)[C@H]1[C@@H]4[C@@H](OC(=O)c2ccco2)CC[C@@H]1OC(=O)c1ccco1 (stereo partly drawn)", "CLASSIFICATION": "no"}

Quick check: does Cc1ccc(-n2cc(/C=N/NC(=O)c3nc(N)n[nH]3)c(-c3ccc(S(C)(=O)=O)cc3)n2)cc1 have growth under 30%? no

Hello, I'm reviewing records and need to know if growth of Nc1ncc(-c2ccc3ncnc(N4CCc5cc(F)c(Cl)cc54)c3c2)cn1 is below 30%. Could you check? yes

Cited source for all entries: PubChem BioAssay (NCI)
